- test-target: Recombinant human c-KIT kinase (Homo sapiens (Human))
- measurement-description: c-KIT kinase chemiluminescence assay (ADP-Glo)
- test-conditions: ATP 50 μM
pIC50: −log10 of the molar value.
measured-attribute: pIC50

Per the record, `Cc1ccc(-c2noc([C@H]3C[C@@H]3F)n2)cc1NC(=O)c1cnc(-c2ccc3c(c2)OC(C)(C)C(=O)N3)o1` has pIC50 of 6.00 to 7.00

Note to self: pIC50 recorded for `Cc1ncc(C(=O)Nc2cc(-c3noc([C@H]4C[C@@H]4F)n3)ccc2C)s1` was < 6.00

###

Reported pIC50 values follow for various compounds
- test-target: Recombinant human c-KIT kinase (Homo sapiens (Human))
- measurement-description: c-KIT kinase chemiluminescence assay (ADP-Glo)
- test-conditions: ATP 50 μM
pIC50: −log10 of the molar value.

# example entries with known answers
COc1ccccc1-c1ncc(C(=O)Nc2cc(-c3noc([C@H]4C[C@@H]4F)n3)ccc2C)o1 : < 6.00
Cc1ccc2c(C(=O)Nc3cc(-c4noc([C@H]5C[C@@H]5F)n4)ccc3C)cnn2c1 : > 7.00
Cc1ccc(-c2noc([C@H]3C[C@@H]3F)n2)cc1NC(=O)c1cnn2cc(-c3cn(C[C@H](C)O)nn3)ccc12 : > 7.00
COCCn1cc(-c2ccc3c(C(=O)Nc4cc(-c5noc([C@H]6C[C@@H]6F)n5)ccc4C)cnn3c2)nn1 : > 7.00
Cc1ncc(-c2noc([C@H]3C[C@@H](C(F)(F)F)C3)n2)cc1NC(=O)c1cnn2cc(-c3cn(C(F)F)nn3)ccc12 : > 7.00

Lookup result for `Cc1sc(-c2noc(C3(F)CN(C(=O)[C@H]4C[C@@H]4F)C3)n2)cc1NC(=O)c1cnn2ccc(N3CC4(C3)CC(O)(C(F)F)C4)cc12` ; measured pIC50: < 6.00

Sample `Cc1ccc(-c2noc([C@H]3C[C@@H]3F)n2)cc1NC(=O)c1cnn2ccc(-c3nnn(CC(C)(C)O)n3)cc12` ; pIC50 observed: > 7.00

###

Here, each record is paired with measured pIC50 data.
- test-target: Recombinant human c-KIT kinase (Homo sapiens (Human), UniProt P10721)
- Sequence (P10721 26-976): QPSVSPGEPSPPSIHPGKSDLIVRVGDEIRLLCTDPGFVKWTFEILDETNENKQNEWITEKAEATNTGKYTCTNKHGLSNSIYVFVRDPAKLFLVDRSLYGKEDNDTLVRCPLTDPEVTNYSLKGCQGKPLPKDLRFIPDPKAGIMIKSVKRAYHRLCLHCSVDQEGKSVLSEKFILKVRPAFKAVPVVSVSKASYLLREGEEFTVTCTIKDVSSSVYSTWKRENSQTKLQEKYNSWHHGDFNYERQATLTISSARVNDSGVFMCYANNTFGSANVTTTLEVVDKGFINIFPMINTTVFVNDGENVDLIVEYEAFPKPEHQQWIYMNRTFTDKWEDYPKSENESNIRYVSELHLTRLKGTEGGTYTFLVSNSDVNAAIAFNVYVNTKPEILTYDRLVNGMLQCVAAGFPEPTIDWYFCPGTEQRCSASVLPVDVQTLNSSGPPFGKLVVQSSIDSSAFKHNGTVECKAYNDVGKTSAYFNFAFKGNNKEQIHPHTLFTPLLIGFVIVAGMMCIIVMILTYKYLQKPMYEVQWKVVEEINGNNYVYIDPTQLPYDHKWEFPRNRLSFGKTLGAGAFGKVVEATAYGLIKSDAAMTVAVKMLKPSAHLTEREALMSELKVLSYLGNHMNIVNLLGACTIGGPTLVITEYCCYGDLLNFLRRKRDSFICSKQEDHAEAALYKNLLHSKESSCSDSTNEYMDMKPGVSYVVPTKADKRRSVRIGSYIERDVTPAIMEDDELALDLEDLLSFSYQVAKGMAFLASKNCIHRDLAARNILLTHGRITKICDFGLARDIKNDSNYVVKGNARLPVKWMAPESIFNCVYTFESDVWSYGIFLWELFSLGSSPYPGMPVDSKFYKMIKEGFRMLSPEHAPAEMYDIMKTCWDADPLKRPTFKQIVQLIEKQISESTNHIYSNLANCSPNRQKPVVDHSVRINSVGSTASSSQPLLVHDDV
- measurement-description: c-KIT kinase chemiluminescence assay (ADP-Glo)
- test-conditions: ATP 50 μM
pIC50: −log10 of the molar value.

Observe how each entry below is paired with its result.
Cc1ccc(-c2noc([C@H]3C[C@@H]3F)n2)cc1NC(=O)c1cnn2ccc(N3CC4(CN(C(=O)OC(C)(C)C)C4)C3)cc12 : > 7.00
Cc1ccc(-c2ncc(OC(F)(F)F)cn2)cc1NC(=O)c1cnn2ccc(-c3c(C)nc(N)nc3C)cc12 : 6.00 to 7.00
Cc1ccc(-c2noc([C@H]3C[C@@H]3F)n2)cc1NC(=O)c1cnc(-c2ccc3c(c2)O[C@@H](C)CN3)o1 : 6.00 to 7.00
COC(=O)N1CC(c2nc(-c3cnc(C)c(NC(=O)c4cnn5ccc(N6CC7(C6)CC(O)(C(F)F)C7)cc45)c3)no2)C1 : > 7.00
Cc1ccc(-c2noc([C@H]3C[C@@H]3F)n2)cc1NC(=O)c1n[nH]c2ncccc12 : < 6.00
Cc1ncc(-c2noc([C@H]3C[C@@H]3F)n2)cc1NC(=O)c1cnn2cc(-c3cn(C(F)F)nn3)ccc12 : 6.00 to 7.00

Next compound, please.
So for `Cc1ccc(-c2noc([C@H]3C[C@@H]3F)n2)cc1NC(=O)c1cnc2n1CCCC2` , the logged pIC50 turned out to be 6.00 to 7.00

###

- Tested on: M-07e cells
- measurement-description: M-07e cellular assay (SCF-mediated cell proliferation)
- Type: cell-based
- test-conditions: Homo sapiens, 72 hours, CellTiter Glo
pEC50: −log10 of the molar value.
A collection of molecules and their measured pEC50

CC(=O)N1CC2(CC(c3nc(-c4cnc(C)c(NC(=O)c5cnn6ccc(N7CC8(COC8)C7)cc56)c4)no3)C2)C1 : < 6.00
CC(=O)N1CCC(c2nc(-c3cnc(C)c(NC(=O)c4cnn5ccc(N6CC7(COC7)C6)cc45)c3)no2)C1 (centres unmarked) : < 6.00

Query `Cc1ccc(-c2noc([C@H]3C[C@@H](OC(F)(F)F)C3)n2)cc1NC(=O)c1cnn2cc(-c3cn(C(F)F)nn3)ccc12` yields pEC50 of > 7.00

Documented pEC50 of `Cc1ccc(-c2ncc(OC(F)F)cn2)cc1NC(=O)c1cnc(-c2ccc3c(c2)CC(=O)N3)o1` : 6.00 to 7.00

Looking up `O=C(Nc1cc(-c2noc([C@H]3C[C@@H]3F)n2)ccc1C(F)F)c1cnn2ccc(N3CC4(COC4)C3)cc12` , I found its pEC50 recorded as 6.00 to 7.00

Kindly note the recorded pEC50 for `Cc1sc(-c2noc(C3CN(C(=O)OC(C)(C)C)C3)n2)cc1NC(=O)c1cnn2ccc(N3CC4(C3)CC(O)(C(F)F)C4)cc12` , which is < 6.00

get_value(item= `Cc1ccc(-c2noc([C@H]3C[C@@H]3F)n2)cc1NC(=O)c1cnn2ccc(N3C[C@@H](CS(C)(=O)=O)[C@@H]3C)cc12` , readout=pEC50) returns > 7.00

response.value for `Cc1ccc(-c2nccc(C3CC3)n2)cc1NC(=O)c1cnn2ccc(N3CC4(COC4)C3)cc12` (field: pEC50) = > 7.00

The molecule listed as `COC1CC2(C1)CN(c1ccn3ncc(C(=O)Nc4cc(-c5noc([C@H]6C[C@@H]6F)n5)ccc4C)c3c1)C2` shows pEC50 equal to > 7.00

So for `Cc1ccc(-c2noc([C@H]3C[C@@H]3F)n2)cc1NC(=O)c1cnn2ccc(N3CC[C@H](NC(=O)OC(C)(C)C)C3)cc12` , the logged pEC50 turned out to be 6.00 to 7.00

###

- Tested on: M-07e cells
- measurement-description: M-07e cellular assay (SCF-mediated cell proliferation)
- Assay type: cell-based
- test-conditions: Homo sapiens, 72 hours, CellTiter Glo
pEC50: −log10 of the molar value.
measured-attribute: pEC50

Recorded results for 4 compounds are shown here.
Cc1ccc(-c2noc([C@H]3C[C@@H]3F)n2)cc1NC(=O)c1cnn2cc(-c3cn(CC(F)(F)F)nn3)ccc12 : > 7.00
Cc1ccc(-c2noc([C@H]3C[C@@H]3F)n2)cc1NC(=O)c1cncn1C : < 6.00
Cc1sc(-c2noc(C3CN(C(=O)C4(F)CC4)C3)n2)cc1NC(=O)c1cnn2ccc(N3CC4(COC4)C3)cc12 : 6.00 to 7.00
Cc1ccc(-c2noc([C@H]3C[C@@H]3F)n2)cc1NC(=O)c1cnn2ccc(N3CC4(C3)CC(F)(F)C4)cc12 : > 7.00

`Cc1ncc(-c2noc(C3CN(C(=O)C4CC4)C3)n2)cc1NC(=O)c1cnn2ccc(N3CC4(C3)CC(O)(C(F)F)C4)cc12` has a reported pEC50 of < 6.00

# compound `Cc1ccc(-c2noc([C@H]3C[C@@H]3F)n2)cc1NC(=O)c1cnc(-c2ccccn2)o1` ; its pEC50 = < 6.00

According to the records, this compound `Cc1nn(-c2ccc(C3CC3)cc2)cc1NC(=O)c1cnn2ccc(N3CC4(COC4)C3)cc12` displays pEC50 of < 6.00

###

- test-target: Recombinant human c-KIT kinase (Homo sapiens (Human))
- measurement-description: c-KIT kinase chemiluminescence assay (ADP-Glo)
- test-conditions: ATP 50 μM
measured-attribute: IC50

Worked examples, 5 molecules total:
Cc1ncc(-c2noc(C3CN(CC(F)F)C3)n2)cc1NC(=O)c1cnn2ccc(N3CC4(C3)CC(O)(C(F)F)C4)cc12 : 100 to 1000 nM
Cc1ccc(-c2noc([C@H]3C[C@@H]3F)n2)cc1NC(=O)c1cnc(-c2ccc3[nH]ncc3c2)o1 : < 100 nM
Cc1ccc(-c2noc([C@H]3C[C@@H]3F)n2)cc1NC(=O)c1cnc(-c2ccc3cc[nH]c3c2)o1 : < 100 nM
Cc1ccc(-c2noc([C@H]3C[C@@H]3F)n2)cc1NC(=O)c1cnn2ccc(N)cc12 : < 100 nM
Cc1ccc(-c2noc([C@H]3C[C@@H]3F)n2)cc1NC(=O)c1cnn2ccc(-c3cnc(N4CC5(COC5)C4)cc3C)cc12 : < 100 nM

For `Cc1ncc(-c2ccc(OC(F)F)nc2)cc1NC(=O)c1cnn2ccc(N3CC4(COC4)C3)cc12` the molecule record lists IC50 as 100 to 1000 nM

The recorded IC50 for `Cc1ccc(-c2noc(C3CN(C(=O)NC4CC4)C3)n2)cc1NC(=O)c1cnn2ccc(N3CC4(COC4)C3)cc12` is > 1000 nM

###

- Tested on: M-07e cells
- measurement-description: M-07e cellular assay (SCF-mediated cell proliferation)
- Type: cell-based
- test-conditions: Homo sapiens, 72 hours, CellTiter Glo
pEC50: −log10 of the molar value.
Examples of compounds with documented pEC50 follow.

Worked examples follow.
Cc1ccc(-c2noc([C@H]3C[C@@H]3F)n2)cc1NC(=O)c1cnn2ccc(N3C[C@@H](CS(C)(=O)=O)[C@H]3C)cc12 : > 7.00
Cc1ncc(-c2noc([C@H]3C[C@H](C(F)(F)F)C3)n2)cc1NC(=O)c1cnn2ccc(N3CC4(COC4)C3)cc12 : > 7.00
Cc1ncc(-c2noc([C@H]3C[C@@H]3F)n2)cc1NC(=O)c1cnn2cc(-c3cn(C(F)F)nn3)ccc12 : > 7.00
Cc1ccc(-c2noc([C@H]3C[C@@H]3F)n2)cc1NC(=O)c1cnn2ccc(N3CCC4(CC3)CC(C)(O)C4)cc12 : > 7.00

Summary for this compound, `Cc1ccc(-c2noc([C@H]3C[C@@H]3F)n2)cc1NC(=O)c1cnn2ccc(N3CC(C(=O)OC(C)(C)C)C3)cc12` : pEC50 is 6.00 to 7.00

meta.source: patent US20250059174A1
